Target: Acetylcholinesterase (Homo sapiens)
Assay: Acetylcholinesterase (AChE) small molecule antagonists: enzyme-based qHTS assay (AID 1347397); further: nearly all actives have a fitted effect of over 55% in size
Conditions: AChE enzyme activity inhibition; series mostly up to 115 µM
The source made the active and inactive calls. The call rests on the fitted dose curve.
Hi there, use one of these labels in your reply, thanks! 1 (active), 0 (inactive)

>  <COMPOUND>
Cc1ccccc1OP(=O)(Oc1ccccc1C)Oc1ccccc1C

>  <CLASS>
0

$$$$
>  <COMPOUND>
CNC(C)(C)Cc1ccccc1

>  <CLASS>
0

$$$$
>  <COMPOUND>
O=[N+]([O-])c1ccc(Cl)c(Cl)c1Cl

>  <CLASS>
0

$$$$
>  <COMPOUND>
COC(=O)/C=C(\C)OP(=O)(OC)OC

>  <CLASS>
1

$$$$
>  <COMPOUND>
C[C@]12Cc3cn[nH]c3C[C@@H]1CC[C@@H]1[C@@H]2CC[C@@]2(C)[C@H]1CC[C@]2(C)O

>  <CLASS>
0

$$$$
>  <COMPOUND>
CCCCN(CCCC)C(=S)[S-].CCCCN(CCCC)C(=S)[S-].[Ni+2]

>  <CLASS>
0

$$$$
>  <COMPOUND>
O=c1[nH]c2cc(Cl)ccc2n1C1CCNCC1

>  <CLASS>
0

$$$$
>  <COMPOUND>
C[C@H]1[C@H](c2ccc(Cl)cc2)SC(=O)N1C(=O)NC1CCCCC1

>  <CLASS>
0

$$$$

In: State the result this test recorded for CC(C)=CC1C(C(=O)OC(C#N)c2cccc(Oc3ccccc3)c2)C1(C)C (stereo not drawn) .
Out: 0

----------
Experiment: qHTS assay to identify small molecule antagonists of the progesterone receptor (PR) signaling pathway - cell viability counter screen (AID 1346798); further: nearly all actives have a fitted effect of over 50% in size
Settings: PR-UAS-bla HEK293T viability, CellTiter-Glo luminescence, 16 h; series mostly up to 92.4 µM
Results filed as inconclusive are left out. Calls of active or inactive are those of the source. The call rests on the fitted dose curve; in most records, active means well fitted cell-killing curve with a large enough effect in the repeat runs; inconclusive means weak or mixed curves, or effect the other way; inactive means no such curve, though single readings can be large or run the other way.
Hi there, use one of these labels in your reply, thanks! active, inactive

The examples below pair each entry with its known result.
>  <COMPOUND>
N#Cc1sc2c(=O)c3ccccc3c(=O)c=2sc1C#N

>  <CLASS>
active

$$$$
>  <COMPOUND>
O=C(O)[C@H](O)[C@@H](O)C(=O)O

>  <CLASS>
inactive

$$$$
>  <COMPOUND>
COCCC#N

>  <CLASS>
inactive

$$$$

In: State the result this test recorded for CCC1(CC)C(=O)N=C(O)NC1=O .
Out: inactive

In: State the result this test recorded for C#CC1(O)CCCCC1 .
Out: inactive

In: State the result this test recorded for CN1CCc2cc(Cl)c(O)cc2[C@H]2c3ccccc3CC[C@@H]21 .
Out: inactive

In: State the result this test recorded for COc1c2c(cc3c1OCO3)CCN(C)C2 .
Out: inactive

In: State the result this test recorded for Nc1cc(Cl)ccc1Cl .
Out: inactive

In: State the result this test recorded for CSC(C)(C)/C=N/O .
Out: inactive

In: State the result this test recorded for c1cc[n+]2c(c1)-c1cccc[n+]1CC2 .
Out: inactive

In: State the result this test recorded for BrCCCBr .
Out: inactive

----------
Experiment: Caspase-3/7 induction in CHO-K1 cells by small molecules, qHTS assay (AID 1346980); further: nearly all actives have a fitted effect of over 15% in size
Details: CHO-K1 caspase-3/7 induction, Caspase-Glo luminescence, 17 h; series mostly up to 92.4 µM
The source made the active and inactive calls. Calls come from the whole dose curve; as a rule, active = well fitted activation curve with a large enough effect in the repeat runs; inconclusive = weak or mixed curves; inactive = flat fitted curve, though single readings scatter.
Hi there, use one of these labels in your reply, thanks! 1.0 for active, 0.0 for inactive

The examples below pair each entry with its known result.
>  <COMPOUND>
Fc1ccc(C(OCCN2CCN(CCCc3ccccc3)CC2)c2ccc(F)cc2)cc1

>  <CLASS>
1.0

$$$$
>  <COMPOUND>
CCC[CH2][Sn]([CH2]CCC)([O]C(C)=O)[O]C(C)=O

>  <CLASS>
0.0

$$$$
>  <COMPOUND>
Nc1ccc(N=Nc2ccccc2)cc1

>  <CLASS>
0.0

$$$$
>  <COMPOUND>
CC(C)C(Nc1ccc(C(F)(F)F)cc1Cl)C(=O)OC(C#N)c1cccc(Oc2ccccc2)c1 (centres undefined)

>  <CLASS>
0.0

$$$$
>  <COMPOUND>
O.O.O.O.O.O.O=S(=O)([O-])[O-].[Ni+2]

>  <CLASS>
0.0

$$$$
>  <COMPOUND>
CC1=C2C[C@H]3[C@@H](CC=C4C[C@@H](O)CC[C@@]43C)[C@@H]2CC[C@]12O[C@@H]1C[C@H](C)CN[C@H]1[C@H]2C

>  <CLASS>
0.0

$$$$
>  <COMPOUND>
CC(C)[C@@H](Nc1ccc(C(F)(F)F)cc1Cl)C(=O)OC(C#N)c1cccc(Oc2ccccc2)c1 (some centres undefined)

>  <CLASS>
0.0

$$$$
>  <COMPOUND>
N#Cc1c2ccccc2cc2ccccc12

>  <CLASS>
0.0

$$$$

Turning now to a further compound:
In: State the result this test recorded for COP(=O)(OC)Oc1ccc([N+](=O)[O-])cc1 .
Out: 0.0

----------
Assay: qHTS assay to identify small molecule antagonists of the vitamin D receptor (VDR) signaling pathway - cell viability counter screen (AID 743225); further: nearly all actives have a fitted effect of over 50% in size
Details: VDR-bla HEK293T viability, CellTiter-Glo luminescence, 16 h; series mostly up to 61 µM
Inconclusive results are not listed. Active and inactive are the calls of the source. Calls come from the whole dose curve; as a rule, active = well fitted cell-killing curve with a large enough effect in the repeat runs; inconclusive = weak or mixed curves, or effect the other way; inactive = no such curve, though single readings can be large or run the other way.
Hi there, use one of these labels in your reply, thanks! active, inactive

>  <MOLECULE>
ClC(Cl)C(Cl)(Cl)Cl

>  <CLASS>
inactive

$$$$
>  <MOLECULE>
N#Cc1ccc(N(CC(N)=O)CC(F)(F)F)cc1C(F)(F)F

>  <CLASS>
inactive

$$$$
>  <MOLECULE>
CCC[CH2][Sn]([CH2]CCC)([O]C(C)=O)[O]C(C)=O

>  <CLASS>
inactive

$$$$
>  <MOLECULE>
COC(=O)C(C)N(C(=O)c1ccco1)c1c(C)cccc1C (configuration not stated)

>  <CLASS>
inactive

$$$$
>  <MOLECULE>
N#Cc1sc2c(=O)c3ccccc3c(=O)c=2sc1C#N

>  <CLASS>
active

$$$$
>  <MOLECULE>
CNC(=O)O/N=C(\C)C(C)S(C)(=O)=O (configuration not stated)

>  <CLASS>
inactive

$$$$
>  <MOLECULE>
CCCCC(CC)COC(=O)OOC(C)(C)C (configuration not stated)

>  <CLASS>
inactive

$$$$
>  <MOLECULE>
CCC1COC(Cn2cncn2)(c2ccc(Cl)cc2Cl)O1 (configuration not stated)

>  <CLASS>
inactive

$$$$
>  <MOLECULE>
Cc1cc2c3c(c1)C(c1ccccc1)=N[C@@H](NC(=O)c1ccncc1)C(=O)N3CC2

>  <CLASS>
inactive

$$$$
>  <MOLECULE>
CC(C)C(Nc1ccc(C(F)(F)F)cc1Cl)C(=O)OC(C#N)c1cccc(Oc2ccccc2)c1 (configuration not stated)

>  <CLASS>
inactive

$$$$

In: State the result this test recorded for C#CCO .
Out: inactive

In: State the result this test recorded for Oc1ccc2[nH]cc(CCCCN3CC=C(c4ccccc4)CC3)c2c1 .
Out: inactive

----------
Experiment: A CellTox Green Cytotoxicity Assay to monitor cytotoxicity in HepG2 cells - 24 hour (AID 1224878); further: nearly all actives have a fitted effect of over 45% in size
Conditions: CellTox Green fluorescence; series mostly up to 76.8 µM
From the text: National Center for Advancing Translational Sciences [NCATS] NIH Chemical Genomics Center [NCGC] U.S. Environmental Protection Agency [EPA] National Institutes of Environmental Health Sciences [NIEHS] National Toxicology Program [NTP] Cell-based models are critical for drug discovery. […] Viable cells produce no appreciable increases in fluorescence. Therefore, the fluorescence signal produced by the binding interaction with dead cell DNA is proportional to cytotoxicity. […]
Records with an inconclusive call do not appear. Activity calls are given as the source filed them. Calls come from the whole dose curve; as a rule, active = well fitted activation curve with a large enough effect in the repeat runs; inconclusive = weak or mixed curves; inactive = flat fitted curve, though single readings scatter.
Hi there, use one of these labels in your reply, thanks! yes = active, no = inactive

>  <MOLECULE>
Oc1ccc2[nH]cc(CCCCN3CC=C(c4ccccc4)CC3)c2c1

>  <CLASS>
yes

$$$$
>  <MOLECULE>
CC(Cl)CCl (stereo unspecified)

>  <CLASS>
no

$$$$
>  <MOLECULE>
CCCCN(CCCC)C(=S)[S-].CCCCN(CCCC)C(=S)[S-].[Ni+2]

>  <CLASS>
no

$$$$
>  <MOLECULE>
N#Cc1c[nH]cc1-c1cccc2c1OC(F)(F)O2

>  <CLASS>
no

$$$$
>  <MOLECULE>
CCC(OC(C)=O)C(CC(C)NC)(c1ccccc1)c1ccccc1 (stereo unspecified)

>  <CLASS>
yes

$$$$

In: State the result this test recorded for CNC(C)(C)Cc1ccccc1 .
Out: no

In: State the result this test recorded for ClC(Cl)C(Cl)(Cl)Cl .
Out: no

In: State the result this test recorded for CCOP(=O)(OCC)Oc1cc(C)nc(C(C)C)n1 .
Out: no

In: State the result this test recorded for O=[N+]([O-])C(Br)Br .
Out: no

In: State the result this test recorded for C=C(C)C(=O)[O][Sn]([CH2]CCC)([CH2]CCC)[CH2]CCC .
Out: yes

In: State the result this test recorded for CC(Cc1ccc(O)cc1)NCC(O)c1cc(O)cc(O)c1 (stereo unspecified) .
Out: no

In: State the result this test recorded for ClC1=C(Cl)[C@]2(Cl)[C@@H]3[C@H]4C[C@H]([C@@H]5O[C@H]45)[C@@H]3[C@@]1(Cl)C2(Cl)Cl .
Out: no

In: State the result this test recorded for Nc1nc(N)nc(Cl)n1 .
Out: no

In: State the result this test recorded for [F][Sn]([c]1ccccc1)([c]1ccccc1)[c]1ccccc1 .
Out: yes

In: State the result this test recorded for CC(C)N(C(=O)SC/C(Cl)=C/Cl)C(C)C .
Out: no

In: State the result this test recorded for CN1[C@@H]2CC[C@H]1CC(O)C2 (stereo partly specified) .
Out: no

In: State the result this test recorded for Cc1ccc([N+](=O)[O-])[c]2c1[O][Hg]2 .
Out: yes
